biological target: SARS-CoV-2病毒N蛋白(全长) (SARS-CoV-2, UniProt P0DTC9 1-419)
Recorded endpoint: EC50

Study these solved cases before continuing.
Binder: nCoV400 (antibody, V domains shown) VH: EVQLLESGGGLVQPGGSLRLSCAASGFTFSSYAMSWVRQAPGKGLEWVSVIYSGGSSTYYADSVKGRFTISRDNSKNTLYLQMNSLRAEDTAVYYCAKDHLELSAAGSQINYYYYGMDVWGQGTTVTVSS VL: SYELTQPPSVSVSPGQTARITCSGDALPKQYAYWYQQKPGQAPVLVIYKDSERPSGIPERFSGSSSGTTVTLTISGVQAEDEADYYCQSADSSGTSHWVFGGGTKLTVL
EC50: 1110 ng/mL

Binder: nCoV433 (antibody, V domains shown) VH: QVQLVESGGGVVQPGRSLRLSCAASGFTFSNYAMHWVRQAPGKGLEWVTIISYDGTNIYEDSVKGRFTISRDNSKNTLYLQMNSLRAEDTAVYYCAREVFDSSGSWFDYWGQGTLVTVSS VL: QLVLTQSPSASASLGASVRLTCSLSSGHRNYAIAWHQQQPEKGPRYLMKLNSDGSHTKGDGVPDRFSGSSSGAERYLTISSLQSEDEADYYCQTWGTGIQVFGGGTKVTVL
EC50: 5.3 ng/mL

Binder: nCoV424 (antibody, V domains shown) VH: QVQLVQSGAEVKKPGASVKLSCKASGYTFSSYYIHWVRQAPGQGLEWLGIINPGGDITAYAQKFQGRVSLTRDTSTSTVYMQLSSLRYEDTAVYYCAREEGDVSTSVFDNWGQGTLVTVSS VL: QLVLTQSPSASASLGASIKLTCTLSSGHRSYAIAWHQQQPGKGPRYLMKLNSDGSHIKGDGVPDRFSGSSSGAERYLSISSLQSEDEADYHCQTWGTGIQVFGGGTRLTVL
EC50: 11.8 ng/mL

Attention now shifts to the item below.
Incoming: Recorded EC50 for nCoV425 (antibody, V domains shown) VH: QVQLVESGGGVVQPGRSLRLSCAASGFTFSNYAMHWVRQPPGKGLEWVAIISYEGRTEYADSMKGRFTISRDNSKSAVYLQMNSLRPEDTAVYYCAREVFDISGSWFDYWGQGTLVTVSS VL: QLVLTQSPSASASLGASVKLTCTLSSRHSNYAIAWHQQQPEKGPRYLMKLNSDGSHTKGDGIPDRFSGSSSGAERYLTISSLHSEDEADYYCQTWGTGIQVFGGGTKVTVV , please?
Outgoing: 5.2 ng/mL
